Test: Cytotoxicity against human TZM-bl cells assessed as inhibition of cell viability by resazurin assay
Conditions: read-out: TC50 (the source's name)
Entries and their CC50

>  <smiles repr>
COc1ccc(Cn2ccc3ccc(-c4ccc5c(ccn5Cc5cccc(C(=O)O)c5)c4)cc32)cc1

>  <CC50>
> 100 µM

$$$$
>  <smiles repr>
COc1cccc(Cn2ccc3ccc(-c4ccc5c(c4)ncn5Cc4cccc(C(=O)O)c4)cc32)c1

>  <CC50>
> 100 µM

$$$$
>  <smiles repr>
COc1cccc(Cn2cnc3ccc(-c4ccc5ccn(Cc6cccc(C(=O)O)c6)c5c4)cc32)c1

>  <CC50>
> 100 µM

$$$$
>  <smiles repr>
NC(=O)c1cccc(Cn2ccc3ccc(-c4ccc5ccn(Cc6cccc(C(=O)O)c6)c5c4)cc32)c1

>  <CC50>
> 100 µM

$$$$
>  <smiles repr>
COc1cccc(Cn2cnc3cc(-c4ccc5ccn(Cc6cccc(C(=O)O)c6)c5c4)ccc32)c1

>  <CC50>
> 100 µM

$$$$
>  <smiles repr>
COc1ccc(Cn2ccc3ccc(-c4ccc5ccn(Cc6cccc(C(=O)O)c6)c5c4)cc32)cc1

>  <CC50>
20 µM

$$$$
>  <smiles repr>
Cn1nnc2ccc(Cn3ccc4ccc(-c5ccc6ccn(Cc7cccc(C(=O)O)c7)c6c5)cc43)cc21

>  <CC50>
> 100 µM

$$$$
>  <smiles repr>
O=C(O)c1cccc(Cn2ccc3ccc(-c4ccc5ccn(Cc6ccc(F)cc6)c5c4)cc32)c1

>  <CC50>
> 25 µM

$$$$
>  <smiles repr>
Cn1ccc2ccc(-c3ccc4ccn(Cc5cccc(C(=O)O)c5)c4c3)cc21

>  <CC50>
> 50 µM

$$$$
